Let's look at some compounds and their measured melting point.

Use the examples below as a reference point.
Cc1ccc(-n2nc(C)cc2NC(=O)c2ccc(C)c(-c3cc4cnc(NC(C)C)nc4cc3O)c2)cc1; 173 to 175 °C
CCC(CC)Nc1ncc2cc(-c3cccc(NC(=O)c4cccc(N(C)C)c4)c3)c(O)cc2n1; 152 °C
Cc1ccc(C(N)=O)cc1-c1cc2cnc(NC(C)C)nc2cc1O; 235 to 236 °C
CCONC(=O)c1ccc(C)c(-c2cc3cnc(NC(C)C)nc3cc2O)c1; 157 °C
CCc1cccc(C)c1Nc1ncc2cc(-c3ccccc3C)c(O)cc2n1; 130 to 133 °C
Cc1ccc(C(=O)NC2CC2)cc1-c1cc2cnc(NC(C)C)nc2cc1O; 156 to 160 °C
CCC(CC)Nc1ncc2cc(-c3ccccc3C)c(O)cc2n1; 198 to 200 °C

Kindly review the next compound as well.
INPUT: Look up melting point of CC(C)Nc1ncc2cc(-c3cccc(NC(=O)c4cccc(N(C)C)c4)c3)c(O)cc2n1 and report it.
OUTPUT: 150 °C
